- System: NCI/ADR-RES
- procedure details: NCI tumour cell line growth inhibition, 48 h
Activity calls are given as the source filed them. No stated cut-off is given here; in the data, active = GI50 up to about 1.1 µM and inactive = higher.
Known GI50 of a selection of compounds
measure: GI50

>>> df
                                   compound               result
0  O=C1Nc2ccccc2/C1=N/Nc1nc(-c2cccc([N+](=O)[O-])c2)cs1   15.3 µM (inactive)
1  O=c1c(C(c2ccccn2)c2c(O)oc3cc(O)ccc3c2=O)c(O)oc2cc(O)ccc12  > 100 µM (inactive)
2  CS(=O)(=O)Nc1ccc2c(c1)N(S(C)(=O)=O)CC2COS(C)(=O)=O (stereo not drawn)  > 100 µM (inactive)
